# protocol.summary: pKa of CHP hydrate material
# Format: physicochemical
result.type: pKa

Task item: What does the data say about its pKa? Entry: O=C1N[C@@H](Cc2cnc[nH]2)C(=O)N2CCC[C@@H]12 [CRP40, CHP monohydrate]
Reply: ~6.4
